Test system: NCI/ADR-RES
Method description: Cytotoxicity against human MCF7/ADR cells after 48 hrs by MTT assay
Type: cell-based
pIC50: −log10 of the molar value.
Recorded endpoint: pIC50

Reference set, count: 2
- Given smiles: "C=C1[C@H](OC(=O)C(C)C)[C@@H](OC(C)=O)[C@@H](OC(C)=O)C(C)(C)/C=C/[C@H](C)[C@H](O)[C@@]2(O)C[C@@](C)(OC(=O)C(C)C)[C@H](OC(C)=O)[C@@H]2[C@H]1OC(=O)c1ccccc1"
  Recorded endpoint: "pIC50"
  Reading: "< 4.00"
- Given smiles: "CC(=O)O[C@H]1[C@@H](OC(C)=O)C(C)(C)/C=C/[C@H](C)[C@H](OC(C)=O)[C@@]2(O)C[C@@](C)(OC(C)=O)[C@H](O)[C@@H]2[C@H]2OC(=O)CC[C@@]2(OC(=O)c2ccccc2)[C@@H]1OC(=O)C(C)C"
  Recorded endpoint: "pIC50"
  Reading: "< 4.00"

Could you now consider this next compound?
Name the recorded pIC50 of the item "C=C1[C@H](OC(=O)C(C)C)[C@@H](OC(C)=O)[C@@H](OC(C)=O)C(C)(C)/C=C/[C@H](C)C(=O)[C@@]2(O)C[C@@](C)(OC(C)=O)[C@H](OC(C)=O)[C@@H]2[C@H]1OC(=O)c1ccccc1" in your answer.
< 4.00
